As shown below, each of these compounds has a reported inhibition at 1 µM value.
Assayed target: native Aβ aggregates in human AD brain tissue sections (Homo sapiens)
Construct: native Aβ aggregates in human AD brain tissue samples; from tissue; host or cells: human AD brain tissue sections
Sequence (P05067 672-713 limits assumed): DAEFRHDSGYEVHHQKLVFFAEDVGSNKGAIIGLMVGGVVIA
Protocol notes: Aβ in vitro displacement assay (selectivity counterscreen, [3H]Example 3 autoradiography)
Type: binding
Measurement context: 1 μM compound; 3 nM [3H]Example 3; human AD brain sections; read-out: sel. counterscreen PCT_INHIB AD @ 1 μM (% displacement of [3H]Example 3)
All answers are understood in %, so give the number only.

input: Which inhibition at 1 µM is reported for this compound? Cn1cc(C(=O)Nc2ccc(N3CCN(c4ccc(C#N)cc4)CC3)cc2)cn1 [Example 158]
output: 87

input: Give the measured inhibition at 1 µM of O=C(Nc1ccc(N2CCN(c3ccccn3)CC2)cc1)c1ccc2c(c1)OCCO2 [Example 14] .
output: 96

input: Consider the compound O=C(Nc1ccc(N2CCN(c3ccccn3)CC2)cc1)c1ccc2nccn2c1 [Example 17] and give its measured inhibition at 1 µM.
output: 98

input: Using the record for COc1ccc(C(=O)Nc2ccc(N3CCN(c4ccc(C#N)nc4)CC3)cc2)nc1 [Example 173] , report its inhibition at 1 µM.
output: 82

Source: patent US11541132B2
